Provenance of the data: patent US20050101595A1

TARGET: human CDK4 and genetically truncated (1-264) cyclin D3 (Homo sapiens)
Sequence (P11802 whole entry, the tested form may be a part): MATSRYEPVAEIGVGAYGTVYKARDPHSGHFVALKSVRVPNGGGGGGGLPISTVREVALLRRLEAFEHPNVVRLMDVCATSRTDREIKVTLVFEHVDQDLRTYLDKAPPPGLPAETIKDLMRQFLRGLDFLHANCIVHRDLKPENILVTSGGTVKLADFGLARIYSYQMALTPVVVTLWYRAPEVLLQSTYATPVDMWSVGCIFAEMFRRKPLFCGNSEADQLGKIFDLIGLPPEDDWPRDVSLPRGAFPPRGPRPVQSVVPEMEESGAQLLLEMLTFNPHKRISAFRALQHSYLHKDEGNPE
Sequence (P30281 1-264 partner): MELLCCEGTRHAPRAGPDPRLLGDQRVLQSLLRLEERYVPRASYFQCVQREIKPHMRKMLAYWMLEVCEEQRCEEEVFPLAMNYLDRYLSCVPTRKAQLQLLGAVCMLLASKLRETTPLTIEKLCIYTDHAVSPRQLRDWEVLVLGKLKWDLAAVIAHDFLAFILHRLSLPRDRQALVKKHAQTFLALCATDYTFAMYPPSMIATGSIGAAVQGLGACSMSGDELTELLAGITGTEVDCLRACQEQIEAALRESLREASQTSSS
EXPERIMENT: Inhibition of CDK4/Cyclin D Retinoblastoma Kinase Activity
Assay type: biochemical
CONDITIONS_USED: at 0.03 μM
// values below are reported CDK4 % Inhibition at 0.03 μM
# value in %; strip the unit string

[
  {
    "COMPOUND": "COCCOC(=O)N1CCC(Nc2nc(N)c(C(=O)c3c(F)cccc3F)s2)CC1",
    "TARGET": "human CDK4 and genetically truncated (1-264) cyclin D3 (Homo sapiens)",
    "RESULT_UNITS": "%",
    "CDK4 % Inhibition at 0.03 μM": 17
  },
  {
    "COMPOUND": "CSc1ccc(C(=O)N2CCC(Nc3nc(N)c(C(=O)c4c(F)cccc4F)s3)CC2)cc1",
    "TARGET": "human CDK4 and genetically truncated (1-264) cyclin D3 (Homo sapiens)",
    "RESULT_UNITS": "%",
    "CDK4 % Inhibition at 0.03 μM": 62
  },
  {
    "COMPOUND": "Nc1nc(NC2CCN(C(=O)C(=O)c3c[nH]c4ccccc34)CC2)sc1C(=O)c1c(F)cccc1F",
    "TARGET": "human CDK4 and genetically truncated (1-264) cyclin D3 (Homo sapiens)",
    "RESULT_UNITS": "%",
    "CDK4 % Inhibition at 0.03 μM": 9
  },
  {
    "COMPOUND": "COC(=O)c1ccc(C(=O)N2CCC(Nc3nc(N)c(C(=O)c4c(F)cccc4F)s3)CC2)cc1 [Example R33]",
    "TARGET": "human CDK4 and genetically truncated (1-264) cyclin D3 (Homo sapiens)",
    "RESULT_UNITS": "%",
    "CDK4 % Inhibition at 0.03 μM": 80
  }
]

Request: Param request: CDK4 % Inhibition at 0.03 μM | system human CDK4 and genetically truncated (1-264) cyclin D3 (Homo sapiens) | item CC(C)S(=O)(=O)c1csc(C(=O)N2CCC(Nc3nc(N)c(C(=O)c4c(F)cccc4F)s3)CC2)c1Cl
Result: 78

Request: Given CC(C)(C)c1ccc(C(=O)N2CCC(Nc3nc(N)c(C(=O)c4c(F)cccc4F)s3)CC2)cc1 , report its CDK4 % Inhibition at 0.03 μM on human CDK4 and genetically truncated (1-264) cyclin D3 (Homo sapiens).
Result: 58

====

System: HCT-116 cell line
EXPERIMENT: Inhibition of cell growth, tetrazolium salt (MTT) assay
Format: cell-based
CONDITIONS_USED: Homo sapiens, HCT-116, 120 h, first HCT-116 column (c4); MTT, three to five days; read-out: HCT-116 IC50
Where a name gives a salt, the structure may show the parent alone.
MEASURED_PROPERTY: IC50 (µM)
Give your result in µM as a bare value.

These solved cases illustrate the format of a correct answer.
[
  {
    "COMPOUND": "CC[C@@H](NCCS(=O)(=O)N1CCC(Nc2nc(N)c(C(=O)c3c(F)cccc3F)s2)CC1)c1ccccc1",
    "MEASURED_PROPERTY": "IC50",
    "RESULT_UNITS": "µM",
    "RESULT_NUMBER": 0.13
  },
  {
    "COMPOUND": "N#Cc1ccccc1S(=O)(=O)N1CCC(Nc2nc(N)c(C(=O)c3c(F)cccc3F)s2)CC1",
    "MEASURED_PROPERTY": "IC50",
    "RESULT_UNITS": "µM",
    "RESULT_NUMBER": 0.14
  },
  {
    "COMPOUND": "Nc1nc(NC2CCN(S(=O)(=O)c3ccc(N4CCN(C=O)CC4)nc3)CC2)sc1C(=O)c1c(F)cccc1F [Example G16, Trifluoroacetic Acid Salt]",
    "MEASURED_PROPERTY": "IC50",
    "RESULT_UNITS": "µM",
    "RESULT_NUMBER": 0.29
  }
]

Request: Enter IC50 (test system HCT-116 cell line) for Nc1nc(NC2CCN(S(=O)(=O)CCNCc3ccccc3)CC2)sc1C(=O)c1c(F)cccc1F
Result: 0.17

====

TARGET: CDK2/Cyclin A (Homo sapiens)
EXPERIMENT: Inhibition of CDK2/Cyclin A Retinoblastoma Kinase Activity
Type: biochemical
CONDITIONS_USED: 0.03 μM compound; Table 4
Description: Cyclin-dependent kinase activity was measured by quantifying the enzyme-catalyzed, time-dependent incorporation of radioactive phosphate from [^32P]ATP or [^33P]ATP into a protein substrate. […] The phosphorylated substrate was then captured on a nitrocellulose or phosphocellulose membrane using a 96-well filtration manifold, and unincorporated radioactivity was removed by repeated washing with 0.85% phosphoric acid. Radioactivity was quantified by exposing the dried membranes to a phosphorimager. […]
MEASURED_PROPERTY: CDK2 % Inhibition at 0.03 μM

# annotated cases, reported CDK2 % Inhibition at 0.03 μM shown
[
  {
    "MOLECULE": "COCC(=O)N1CCC(Nc2nc(N)c(C(=O)c3c(F)cccc3F)s2)CC1 [Example Q42]",
    "TARGET": "CDK2/Cyclin A (Homo sapiens)",
    "CDK2 % Inhibition at 0.03 μM": "−4%"
  },
  {
    "MOLECULE": "COc1ccc(C(=O)N2CCC(Nc3nc(N)c(C(=O)c4c(F)cccc4F)s3)CC2)cc1 [Example Q28]",
    "TARGET": "CDK2/Cyclin A (Homo sapiens)",
    "CDK2 % Inhibition at 0.03 μM": "53%"
  },
  {
    "MOLECULE": "Nc1nc(NC2CCN(C(=O)CCC3CCCC3)CC2)sc1C(=O)c1c(F)cccc1F [Example Q58]",
    "TARGET": "CDK2/Cyclin A (Homo sapiens)",
    "CDK2 % Inhibition at 0.03 μM": "29%"
  },
  {
    "MOLECULE": "Nc1nc(NC2CCN(C(=O)C(Cl)(c3ccccc3)c3ccccc3)CC2)sc1C(=O)c1c(F)cccc1F [Example Q51]",
    "TARGET": "CDK2/Cyclin A (Homo sapiens)",
    "CDK2 % Inhibition at 0.03 μM": "4%"
  },
  {
    "MOLECULE": "COc1ccc(CC(=O)N2CCC(Nc3nc(N)c(C(=O)c4c(F)cccc4F)s3)CC2)cc1OC [Example Q72]",
    "TARGET": "CDK2/Cyclin A (Homo sapiens)",
    "CDK2 % Inhibition at 0.03 μM": "18%"
  },
  {
    "MOLECULE": "Nc1nc(NC2CCN(C(=O)OCc3ccc([N+](=O)[O-])cc3)CC2)sc1C(=O)c1c(F)cccc1F [Example Q85]",
    "TARGET": "CDK2/Cyclin A (Homo sapiens)",
    "CDK2 % Inhibition at 0.03 μM": "42%"
  },
  {
    "MOLECULE": "Nc1nc(NC2CCN(C(=O)c3ccccc3)CC2)sc1C(=O)c1c(F)cccc1F [Example Q9]",
    "TARGET": "CDK2/Cyclin A (Homo sapiens)",
    "CDK2 % Inhibition at 0.03 μM": "13%"
  },
  {
    "MOLECULE": "CCOC(=O)C(=O)N1CCC(Nc2nc(N)c(C(=O)c3c(F)cccc3F)s2)CC1 [Example Q39]",
    "TARGET": "CDK2/Cyclin A (Homo sapiens)",
    "CDK2 % Inhibition at 0.03 μM": "−13%"
  },
  {
    "MOLECULE": "CN(C)C(=O)N1CCC(Nc2nc(N)c(C(=O)c3c(F)cccc3F)s2)CC1 [Example Q2]",
    "TARGET": "CDK2/Cyclin A (Homo sapiens)",
    "CDK2 % Inhibition at 0.03 μM": "−43%"
  },
  {
    "MOLECULE": "Nc1nc(NC2CCN(C(=O)CCc3ccccc3)CC2)sc1C(=O)c1c(F)cccc1F [Example Q48]",
    "TARGET": "CDK2/Cyclin A (Homo sapiens)",
    "CDK2 % Inhibition at 0.03 μM": "5%"
  }
]

Now look at this one.
Request: Indicate the recorded CDK2 % Inhibition at 0.03 μM value for this molecule: Nc1nc(NC2CCN(C(=O)Cc3cccs3)CC2)sc1C(=O)c1c(F)cccc1F [Example Q65]
Result: 39%

====

Below, each entry is listed alongside its reported HCT-116 % Inhibition at 0.25 μM.
Test system: HCT-116 cell line
EXPERIMENT: Inhibition of cell growth, tetrazolium salt (MTT) assay
Assay type: cell-based
CONDITIONS_USED: 0.25 μM compound; HCT-116; Table 2
# value in %; strip the unit string

[
  {
    "COMPOUND": "C[Si](C)(C)NC(=O)N1CCC(Nc2nc(N)c(C(=O)c3c(F)cccc3F)s2)CC1 [Example O2]",
    "RESULT_NUMBER": 0
  }
]

Request: Provide one value: measured HCT-116 % Inhibition at 0.25 μM of Nc1nc(NC2CCN(C(=O)Nc3ccc([N+](=O)[O-])cc3)CC2)sc1C(=O)c1c(F)cccc1F [Example O36]
Result: 28

Request: Specify HCT-116 % Inhibition at 0.25 μM for Nc1nc(NC2CCN(C(=O)Nc3cccc4ccccc34)CC2)sc1C(=O)c1c(F)cccc1F [Example O35] and stop.
Result: 0

Request: For the compound Nc1nc(NC2CCN(C(=O)Nc3ccccc3Br)CC2)sc1C(=O)c1c(F)cccc1F [Example O4] , give its measured HCT-116 % Inhibition at 0.25 μM value.
Result: 4

Request: Name the recorded HCT-116 % Inhibition at 0.25 μM of the item CCCCCCCOc1ccc(NC(=O)N2CCC(Nc3nc(N)c(C(=O)c4c(F)cccc4F)s3)CC2)cc1 [Example O83] in your answer.
Result: 59
